B1: Glucocorticoid receptor, residues 419 to 494; numbered along this chain, P04150 (parent)
chain: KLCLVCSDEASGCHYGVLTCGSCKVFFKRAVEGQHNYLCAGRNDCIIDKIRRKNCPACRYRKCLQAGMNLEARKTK

Variants of: B1
Test: abundance fitness (aPCA) (normalised: wild type 0, dead -1); higher = more abundant; growth selection in yeast, the domain comes from the species named
Settings: Homo sapiens
Let's look at some variants and their measured abundance fitness.

Worked set:
KLCLVCSDEASACHYGVLTCGSCKVFFKRAVEGQHNYLCAGRNDCIIDKIRRKNCPACRYRKCLQAGMNLEARKTK [G12A] : -0.101
KLCLVCSDEASGCHYGVLTCGSCKVFFKRAVEGQHNYLCAGRNDCIIDKIRRKNCHACRYRKCLQAGMNLEARKTK [P56H] : -0.111

The record that follows has no abundance fitness shown yet.
Item under review: KLCLVCSDEASGCHQGVLTCGSCKVFFKRAVEGQHNYLCAGRNDCIIDKIRRKNCPACRYRKCLQAGMNLEARKTK [Y15Q] . Reported abundance fitness?
-0.08
